Recorded measurements of TGI, one per entry
- Tested on: SNB-75 CNS
- assayInfo: NCI tumour cell line growth inhibition, 48 h

Here's what some known entries look like.
molecule	result
COP(=O)(OC)C(O)/C=C(\Cl)c1ccc(Cl)cc1 (centres undefined)	> 100 µM
CC(=O)N1CC[N+](C)(CCCCN2c3ccccc3Sc3cc(N=[N+]=[N-])ccc32)CC1	> 100 µM
CCOCC(=O)N[C@H]1CCc2cc(OC(=O)COCC)c(OC)c(OC)c2-c2ccc(SC)c(=O)cc21	> 100 µM

Consider the additional molecule presented here.
Exercise: Looking for the measured TGI of `COc1cc2c(oc(=O)c3cc4ccoc4c(OC)c32)c2cccc(O)c12` , can you help?
Key: > 100 µM

Values compiled from PubChem BioAssay (NCI).
